// provenance: the supplement of paper PMC8728848

Field: glycan array binding signal (z-score). Provide a value for each of the binders that follow.
Molecular target: Man(a1-3)[Man(a1-6)]Man
Test: glycan array binding signal (z-score within array); higher = stronger binding
Conditions: glycan notation: IUPAC condensed, linker removed
Many of the other results were omitted from the sample, so the strongest signals are more common in it than they were.
No unit in the answer, please; the number alone is enough.

Query: Would you kindly share the measured glycan array binding signal (z-score) for CIH1 (Colletotrichum higginsianum) (protein) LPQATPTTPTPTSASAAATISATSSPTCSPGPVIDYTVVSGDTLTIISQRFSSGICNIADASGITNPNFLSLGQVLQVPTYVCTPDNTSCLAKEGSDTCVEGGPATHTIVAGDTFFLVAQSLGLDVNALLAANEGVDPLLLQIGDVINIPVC ?
Reply: -0.045

Query: What do we get for X56-1 (Clostridium perfringens), P26831 (protein) MGSSHHHHHHSSGLVPRGSHMASDPNRIIATYISNRQDAPTGNPDNIFDNNASTELVYKNPNRIDVGTYVGVKYSNPITLNNVEFLMGANSNPNDTMQKAKIQYTVDGREWIDLEEGVEYTMPGAIKVENLDLKVRGVRLIATEARENTWLGVRDINVNKKEDSNSGVEF ?
Reply: -0.231

Query: What do we get for RbmA (Vibrio cholerae), A0A2H4NFB8 (protein) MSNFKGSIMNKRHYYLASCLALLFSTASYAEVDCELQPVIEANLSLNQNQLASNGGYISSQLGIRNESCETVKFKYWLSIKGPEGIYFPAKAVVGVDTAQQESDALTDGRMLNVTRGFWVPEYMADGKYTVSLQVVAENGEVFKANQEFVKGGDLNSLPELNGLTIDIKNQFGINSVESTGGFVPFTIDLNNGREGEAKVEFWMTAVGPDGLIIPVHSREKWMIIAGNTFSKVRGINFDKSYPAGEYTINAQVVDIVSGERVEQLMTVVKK ?
Reply: 0.76
